# System: ACHN
# Experimental protocol: NCI tumour cell line growth inhibition, 48 h
Activity calls are given as the source filed them. Cut-off read from the data, not from the text of the source: active = GI50 up to about 1.1 µM and inactive = higher. Where a SMILES comes first, the peptide text is derived from it.
Measurement type: GI50

[ask] Give ACHN GI50 for O=C(CCN1CCN(c2ccccc2)CC1)N1CCc2c([nH]c3ccccc23)C1c1cccnc1 (centres undefined)
[reply] 20 µM (inactive)

[ask] Lookup O=c1[nH]c(Br)nc2[nH]nnc12
[reply] > 100 µM (inactive)

[ask] Query CCn1ncc2c(=O)n3ncn(-c4ccc(Br)cc4)c3nc21 next
[reply] > 100 µM (inactive)

[ask] Same question for COc1cc2c(cc1OCc1ccccc1)CNCC2 please.
[reply] > 100 µM (inactive)

[ask] And what about the compound CN(C)P(=O)(/C(N)=N/Nc1ccc([N+](=O)[O-])cc1)N(C)C ?
[reply] > 100 µM (inactive)

[ask] // repeat for CCC(C)C1NC(=O)C2CCCN2C(=O)CNC(=O)C(C)NC(=O)C(Cc2ccccc2)NC(=O)C(C(C)C)NC1=O (centres undefined) (cyclo(GPIVFA); configuration not given here) and report
[reply] > 100 µM (inactive)

[ask] Moving on to CC(=O)n1cc(C2CC23N=C(c2ccccc2)OC3=O)c2ccccc21 (centres undefined)
[reply] 17.7 µM (inactive)

[ask] Then what about the compound CNC(SC)=C1C(=O)OC(C)(C)OC1=O ?
[reply] > 100 µM (inactive)

[ask] Likewise for C[C@H](CCC(=O)O)[C@H]1CC[C@H]2[C@@H]3[C@@H](O)C[C@@H]4C[C@H](O)CC[C@]4(C)[C@H]3CC[C@]12C ?
[reply] > 100 µM (inactive)
